Exercise: for every item that follows, state its recorded pEC50.
# test-system: T1, full length cynomolgus KLRG1 (cell-expressed) (cynomolgus, UniProt A0A2K5WAP9 1-186)
# T1 construct: whole, on cells; also called CHO-cynomolgus-KLRG1; cyno KLRG1
# T1 sequence: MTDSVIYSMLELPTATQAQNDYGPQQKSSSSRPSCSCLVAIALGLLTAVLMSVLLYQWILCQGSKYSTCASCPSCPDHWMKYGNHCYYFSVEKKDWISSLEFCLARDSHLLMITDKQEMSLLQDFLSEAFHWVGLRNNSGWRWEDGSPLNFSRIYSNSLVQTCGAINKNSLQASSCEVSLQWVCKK
# method: FACS on CHO cells expressing full length cynomolgus KLRG1, anti-mouse detection
Give bare numbers, as −log10 of the molar value.

The following binders each have a reported value; give each one's pEC50.
1. ABC_G1D01 (antibody, V domains shown, Mouse hybridoma monoclonal antibody) VH: EVQLQQSGPELVKPGASVKMSCKASGYTFTDYNIHWVKQSHGKSLEWIGFFNPKNGVTINNQNFKGKAALTVNKSSSTAYMELRRLTSEDSAVYYCARDYYGTAWFAYWGQGTLVTVSA VL: DIVMSQSPSSLAVSVGEKVTMSCRSSQSLLYSSNQKNYLAWYQQKPGQSPKLLIYWASTRESGVPDRFTGSGSGTDFTLTISSVKAEDLAVYYCQQFYSYPTFGGGTKLEIK
2. ABC_G1D02 (antibody, V domains shown, Mouse hybridoma monoclonal antibody) VH: QVQLQQSGAELVRPGTSVKVSCKASGYAFTNYFIEWIKQRPGQGLEWIGVINPGSGGTNYNEKFKGKATLTADKSSSTAYMQLSSLTSEDSAVYFCTRPGHFDYWGQGTTLTVSS VL: EIVLTQSPTTMAASPGEKITITCSASSSISSNYLHWYQQKPGFSPKLLIYKTSNLASGVPPRFSGSGSGTSYSLTIGTMEAEDVATYYCQQGNSIPRTFGGGTKLEIK
3. ABC_G1D05 (antibody, V domains shown, Mouse hybridoma monoclonal antibody) VH: QVQLKQSGPGLVQPSQSLSITCTVSGFSLTTHGVHWVRQSPGKGLEWLGVIWSGGSTDYNAAFISRLSIRKDNSKSQVFFKMNSLQTNDTAIYYCARLRLPAMDYWGQGTSVTVSS VL: QIVLTQSPTIMSASLGERVTMTCTASSSVSSTYLHWYQQKPGSSPKLWIYSTSNLASGVPARFSGSGSGTSYSLTISSMEAEDAATYYCHQYHRSPLSFGAGTKLELK

1. 8.46
2. 8.00
3. 8.23

The following binders each have a reported value; give each one's pEC50.
1. ABC_G1D04 (antibody, V domains shown, Mouse hybridoma monoclonal antibody) VH: EVQLQQSGPELVKPGSSLMMSCKSSGYTFTDYNIHWVKQSHGKRLEWIGFIDPKNGGTLYSEKFKDKATLTINKSSSTAYMELRSLTSEDSAVFYCAPDYYGSAWFAYWGQGTLVTVSA VL: DIVMSQSPSSLTVSVGENVTMSCKSSQNLLYTSNQKNYLAWYQQKPGHSPKLLISWASTRESGVPDRFTGSGSGTDFTLTITSVKAEDLAVFYCQQYYHYPTFGGGTKLEIK
2. ABC_G1D03 (antibody, V domains shown, Mouse hybridoma monoclonal antibody) VH: EVQLQQSGPELVKPGASVKMSCKTSGYTFTDHNMHWLKQSHGKGLEWFGFINPNTGVTRYNQKFNGKATLTINKSSSTAYLDLRSLTSEDSAVYYCTRDYYGSAWFAYWGQGTLVTVSA VL: DIVMSQSPASQTVSVGEKVTMSCKSSQTLLYSSDQKNYLAWYQQKPGQSPKLLIYWASTRESGVPDRFTGSGSGTDFTLTISSVKAEDLAVYYCQQYYNYPTFGGGTKLEIK

[8.14, 8.06]
